# Test system: CAMKK1
# conditions-used: concentration: 1 μM, replicates: in singlicate; n = 1
readout-type: %Inh (%)
The answer is to be given in %; state only the numeric part.

Query :: Return reported %Inh for target or system CAMKK1, item COc1ccc(-c2coc3ccc(-c4nnc(C)o4)cc23)cc1 .
Result :: 0

Query :: Return reported %Inh for target or system CAMKK1, item Cc1ccccc1Cn1ccn2c(=O)cc(N3CCOCC3)nc12 .
Result :: 9

Query :: Return reported %Inh for target or system CAMKK1, item Fc1ccc(-c2nc3n(c2-c2ccncc2)CCS3)cc1 .
Result :: 8

Query :: Return reported %Inh for target or system CAMKK1, item Cc1cnc(N)c(/C=C/c2cncc(C(=O)NCCc3ccc(Cl)cc3Cl)c2)c1.Cl .
Result :: 7

Query :: Return reported %Inh for target or system CAMKK1, item COc1cccc(CNC(=O)NC2CCN(c3ccnc(Nc4ccc(F)cc4)n3)C2)c1 (stereo not drawn) .
Result :: 79

Query :: Return reported %Inh for target or system CAMKK1, item CNc1nc(-c2ccc3c(N)n[nH]c3c2)cc(N2C[C@@H](C(=O)NC3CCCCC3)OC[C@H]2C)n1 .
Result :: 21

Query :: Return reported %Inh for target or system CAMKK1, item COc1ccc(Nc2nccc(NCCNC(=O)Nc3cc(C)ccc3C)n2)cc1 .
Result :: 13

Query :: Return reported %Inh for target or system CAMKK1, item Cc1ccc(-c2nc(Nc3ccncc3)c3ccccc3n2)s1 .
Result :: 0

Query :: Return reported %Inh for target or system CAMKK1, item CC(=O)c1c(C)c2cnc(Nc3ccc(N4CCNCC4)cn3)nc2n(C2CCCC2)c1=O .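 Further: KINOMEscan kinase panel screen.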
Result :: 0

Where these numbers come from: paper PMC5540273
